Source of measurements: PubChem BioAssay (NCI)

# Tested on: MCF7 breast
# assay.procedure: NCI tumour cell line growth inhibition, 48 h
TGI values by entry
experimental.endpoint: TGI

1. Cn1ncnc1[C@H]1c2n[nH]c(=O)c3cc(F)cc(c23)N[C@@H]1c1ccc(F)cc1 | > 100 µM
2. COc1ccc2c(c1)NC1=C(C(=O)OC1)C2c1cc(OC)c2c(c1)OCO2 (stereo unspecified) | > 100 µM
3. O=S(Nc1ccccc1)c1ccc(N2CCOCC2)cc1 (stereo unspecified) | > 100 µM
4. O=C1NC(Nc2ccccc2)=NC(C(F)(F)F)(C(F)(F)F)N1 | > 100 µM
5. CC(=O)OCC1OC(SC2=N/C(=C\c3ccc(Br)s3)C(=O)N2CN2CCOCC2)C(OC(C)=O)C(OC(C)=O)C1OC(C)=O (stereo unspecified) | 33.8 µM
6. C=C/C(C)=C\CC1[C@](C)(O)CC[C@H]2C(C)(C)C(=O)CC[C@]12C (stereo partly specified) | > 100 µM
7. C[C@@H]1[C@H](C)N1CC(O)Cn1ccnc1[N+](=O)[O-] (stereo partly specified) | > 100 µM
8. CCCCOC(=O)N1CCN(/[N+]([O-])=N/Oc2ccc([N+](=O)[O-])cc2[N+](=O)[O-])CC1 | 8.57 µM
9. O=c1cc(N2CCCC2)[nH]c(=O)n1Cc1ccccc1 | > 100 µM
10. CC(C)CNc1nc2ncnc(N)c2[nH]1 | > 100 µM
11. COc1ccc(C2=Nc3cc(C)c(C)cc3NC(c3ccccc3)C2)cc1 (stereo unspecified) | > 100 µM
12. CCCCC(=O)c1c(O)nc2sccn2c1=O | > 10 µM
13. O=C1C[C@@H](C(=O)OCc2ccccc2)NC(=O)C[C@@H](C(=O)OCc2ccccc2)NC(=O)C[C@@H](C(=O)OCc2ccccc2)N1 | > 100 µM
14. OC1(c2ccccc2)CCN(Cc2c[nH]c3ccccc23)CC1 | > 100 µM
15. Cc1cc2c(C(C)C)c(O)c(O)cc2c(O)c1-c1c(C)cc2c(C(C)C)c(O)c(O)cc2c1O | 29.5 µM
16. COP(=O)(OC)C(Cc1cn(C(C)=O)c2ccccc12)C(=O)O (stereo unspecified) | > 100 µM
17. COc1ccc(C/C(C)=C(/c2ccc(OCCN3CCCCC3)cc2)c2ccc(OC(=O)NCc3ccccc3)cc2)cc1 | 0.512 µM
18. COc1cccc(-c2c[nH]c3c(N/N=C/c4ccncc4)ncnc23)c1 | 5.91 µM
19. C=C1C(O)C2C(=C(CC)C13CC3)C(=O)C(C)(C)C2OC (stereo unspecified) | > 100 µM
20. COc1cc(C(=O)c2c(-c3ccccc3)oc3c(OC)cccc23)cc(OC)c1OC | > 100 µM
21. NC(=O)NNc1nc(-c2ccccc2)cs1 | > 100 µM
